Biological target: Sentrin-specific protease 7 (Homo sapiens, UniProt Q9BQF6)
Sequence (Q9BQF6 whole entry): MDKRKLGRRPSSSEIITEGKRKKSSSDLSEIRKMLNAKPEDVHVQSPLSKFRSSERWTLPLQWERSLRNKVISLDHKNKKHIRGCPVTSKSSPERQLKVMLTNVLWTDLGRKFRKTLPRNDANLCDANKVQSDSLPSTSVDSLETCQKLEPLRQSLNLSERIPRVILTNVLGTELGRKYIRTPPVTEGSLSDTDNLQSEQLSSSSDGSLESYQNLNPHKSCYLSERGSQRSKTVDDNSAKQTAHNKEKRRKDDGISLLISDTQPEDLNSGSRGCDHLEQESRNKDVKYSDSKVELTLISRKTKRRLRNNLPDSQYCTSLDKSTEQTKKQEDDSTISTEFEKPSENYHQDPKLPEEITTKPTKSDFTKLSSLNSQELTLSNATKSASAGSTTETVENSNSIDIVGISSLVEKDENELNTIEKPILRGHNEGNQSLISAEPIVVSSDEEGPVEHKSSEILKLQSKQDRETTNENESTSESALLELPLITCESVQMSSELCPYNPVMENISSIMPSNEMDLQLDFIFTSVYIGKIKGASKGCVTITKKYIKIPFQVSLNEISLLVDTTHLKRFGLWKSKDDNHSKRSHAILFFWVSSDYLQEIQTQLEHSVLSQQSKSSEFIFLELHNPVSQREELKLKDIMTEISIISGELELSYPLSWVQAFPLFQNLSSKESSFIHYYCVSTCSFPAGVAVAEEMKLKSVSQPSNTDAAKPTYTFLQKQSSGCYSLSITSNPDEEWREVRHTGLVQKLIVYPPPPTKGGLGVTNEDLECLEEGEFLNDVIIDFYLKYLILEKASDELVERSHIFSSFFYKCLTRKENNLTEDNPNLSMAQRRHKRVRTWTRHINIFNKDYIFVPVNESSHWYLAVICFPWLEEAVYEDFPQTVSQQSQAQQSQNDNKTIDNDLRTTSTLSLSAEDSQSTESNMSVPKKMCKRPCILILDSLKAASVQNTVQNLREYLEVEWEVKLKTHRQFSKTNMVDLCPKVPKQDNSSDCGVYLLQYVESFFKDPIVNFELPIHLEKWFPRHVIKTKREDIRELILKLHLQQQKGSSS
Format: functional
Active and inactive are the calls of the source.
Property: IC50; scope: individual compounds

# count of solved cases: 3
>>> print(df.to_string())
                                   compound        data_value
0  N#Cc1c(NC(=O)c2ccc(Br)o2)n(-c2ccccc2)c2nc3ccccc3nc12  3.69 µM (active)
1             Fc1ccccc1CSc1nnc(-c2ccccc2)o1    12 µM (active)
2  COc1ccc(NC(=O)c2ccc(OCC3CCCO3)cc2)cc1Cl (stereo not given)  5.56 µM (active)

## Task Form entry - test system: Sentrin-specific protease 7 (Homo sapiens, UniProt Q9BQF6); read-out: IC50; compound: CCc1cccc2c(C(=O)COC(=O)c3ccccc3)c[nH]c12;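 note: Luminescence-based dose-response confirmation of ultra-high-throughput screening hits, measuring inhibition of SENP7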
## Result 4.08 µM (active)

## Task What is its IC50 for Sentrin-specific protease 7 (Homo sapiens, UniProt Q9BQF6)? Entry: CCOc1ccc(/N=C/c2c(O)oc3ccccc3c2=O)cc1
## Result 6.32 µM (active)
